Listed below: GI50 values for each entry.
- Test system: SK-MEL-2
- method_notes: NCI tumour cell line growth inhibition, 48 h
Activity calls are given as the source filed them. No stated cut-off is given here; in the data, active = GI50 up to about 1.1 µM and inactive = higher.

compound	GI50
O=[N+]([O-])c1ccc(-c2noc(-c3ccc(Cl)cc3)c2C2=NCCN2)cc1	> 100 µM (inactive)
O=c1cc(-c2ccc(O)cc2)oc2cc(O)cc(O)c12	29.9 µM (inactive)
O=C1C2=C(SCCS2)C(=O)c2c(Sc3ccc(Cl)cc3)c(Sc3ccc(Cl)cc3)c(Sc3ccc(Cl)cc3)c(Sc3ccc(Cl)cc3)c21	41.9 µM (inactive)
Cc1nc2ccc(Cl)cc2c2c1CCS2	57.9 µM (inactive)
COc1cccc2c(=O)c3c(O)c4cc(N(C)C)ccc4c(OC(C)=O)c3oc12	16.3 µM (inactive)
COC(=O)/C=C(\S/C(=N\n1cc(C(=O)OC)c(C(=O)OC)c1-c1ccc(C)cc1)c1ccc(C)cc1)C(=O)OC	6.12 µM (inactive)
O=Cc1ccc2c(c1I)OCO2	> 100 µM (inactive)
CCN(CC)Cc1cc(/N=N\c2c(O)ccc3c(/N=N\c4ccc(O)c(CN(CC)CC)c4)c(O)ccc23)ccc1O	12.6 µM (inactive)
CC(=O)OCCOCn1cc(C=O)c2ccccc21	> 100 µM (inactive)
Brc1ccc2[nH]cc([C@@H]3CN[C@@H](c4c[nH]c5ccc(Br)cc45)CN3)c2c1	8.95 µM (inactive)
COC(=O)C1=C(C(=O)OC)SC(=C2SC3=C(SC(=C4SCCS4)S3)S2)S1	> 100 µM (inactive)
C=CC(C)(C)n1cc(C2=C(O)C(=O)C(c3cn(C(C)(C)C=C)c4ccccc34)=C(OC(C)=O)C2=O)c2ccccc21	1.02 µM (active)
Nc1c(S(=O)(=O)O)cc(S(=O)(=O)O)c2ccc(/N=N/c3ccc(/C=C/c4ccc(/N=N/c5ccc6c(S(=O)(=O)O)cc(S(=O)(=O)O)c(N)c6c5O)cc4S(=O)(=O)O)c(S(=O)(=O)O)c3)c(O)c12	> 100 µM (inactive)
CC(=O)OC1CCn2nnc(CO)c21 (stereo unspecified)	> 100 µM (inactive)
OC[C@H]1O[C@@H](Oc2cc(O)cc(/C=C/c3ccc(O)cc3)c2)[C@H](O)[C@@H](O)[C@@H]1O	> 100 µM (inactive)
c1cncc(CSc2ncnc3[nH]cnc23)c1	> 100 µM (inactive)

---

- Tested on: Malme-3M
- method_notes: NCI tumour cell line growth inhibition, 48 h
Active and inactive are the calls of the source. Rule as the data show it: active = GI50 up to about 1.1 µM and inactive = higher.
Classes used: active, inactive

In [3]: df
Out[3]:
                                   compound    target  discrete_label
0  COc1ccc2c3c1OC1C(OC)(OC)CC4(C=C2)CN(C)CCC314 (stereo not given)  Malme-3M        inactive
1  CC1S/C(=N/c2nnc(-c3ccccc3)o2)NC1=O (stereo not given)  Malme-3M        inactive
2  O=[N+]([O-])c1ccc2nc3n(c2c1)C(c1c(F)cccc1F)SC3 (stereo not given)  Malme-3M        inactive
3  O[C@H]1[C@H](O)[C@@H](O)[C@H](O)[C@@H](O)[C@H]1O  Malme-3M        inactive
4  CC(C)c1cccc(C(C)C)c1NC(=O)/C(CC(=O)CC(c1ccccc1)c1c(O)c2ccccc2oc1=O)=N/O (stereo not given)  Malme-3M        inactive
5  C=CCn1c2ccccc2[n+]2cc([N+](=O)[O-])ccc12  Malme-3M        inactive
6  O=C(CC(O)(C(F)(F)Cl)C(F)(F)Cl)CC(O)(C(F)(F)Cl)C(F)(F)Cl  Malme-3M          active
7                          N=C(N)NCCNC(=N)N  Malme-3M        inactive
8  O=c1c2cc([N+](=O)[O-])ccc2oc2nc3n(c(=O)c12)CCCS3  Malme-3M        inactive
9  CS(=O)(=O)OCCN1CCN(C(=O)c2cccc3c(Nc4ccc(S(N)(=O)=O)cc4)c4ccccc4nc23)CC1  Malme-3M        inactive

---

- Test system: CAKI-1
- method_notes: NCI tumour cell line growth inhibition, 48 h
Active and inactive are the calls of the source. Cut-off read from the data, not from the text of the source: active = GI50 up to about 1.1 µM and inactive = higher.
Classes used: active, inactive

                                    compound  target  discrete_label
 0                COc1cccc(NC(=O)CC(=O)NN)c1  CAKI-1        inactive
 1  O=C1OCOC2(CCCC2)C1c1ccccc1 (stereo unspecified)  CAKI-1        inactive
 2  COc1ccc(C(=O)c2ccc(-n3c4ccccc4c4ccc5c(c43)C(=O)C=CC5=O)cc2)cc1  CAKI-1          active
 3  O=C(O)[C@H](c1ccccc1)[C@@H](C(=O)O)c1ccccc1  CAKI-1        inactive
 4                         Nc1nncc2[nH]nnc12  CAKI-1        inactive
 5          NC1=C(Cl)C(=O)c2c(O)ccc(O)c2C1=O  CAKI-1        inactive
 6  Clc1cc(OCc2nn3c(Cc4ccccc4)nnc3s2)c(Cl)cc1OCc1nn2c(Cc3ccccc3)nnc2s1  CAKI-1        inactive
 7  CC(=O)/N=C1\N/C(=C/c2cc([N+](=O)[O-])ccc2O)CN1C  CAKI-1        inactive
 8  CC(=O)Nc1ccc(S(=O)(=O)N/N=C/c2cc(I)cc([N+](=O)[O-])c2O)cc1  CAKI-1        inactive
 9  O=C(O)C1CCCN1Cc1cc2ccccc2c2ccccc12 (stereo unspecified)  CAKI-1        inactive
10            Clc1ccc(Cc2nc3ccccc3s2)c(Cl)c1  CAKI-1        inactive

---

- Tested on: MCF7
- method_notes: NCI tumour cell line growth inhibition, 48 h
Activity calls are given as the source filed them. Rule as the data show it: active = GI50 up to about 1.1 µM and inactive = higher.
Classes used: 1 (yes) (active), 0 (no) (inactive)

                                    compound  discrete_label
 0  COc1ccc(C2SC(=N)Nc3c2c(C)nn3C(=O)c2ccccc2O)cc1OC (stereo not given)          0 (no)
 1  O=C1CSC(c2ccccc2O)N1c1ccc(-n2c(-c3ccccc3)nc3ccccc3c2=O)cc1 (stereo not given)          0 (no)
 2                      NNC(=O)CCCCCCCC(=O)O          0 (no)
 3  CC1CCCC2(CC[N+](C)(CCC[N+](C)(C)C)CC2)C1 (stereo not given)          0 (no)
 4  CSCCCNC(=O)c1csc(-c2csc(CCNC(=O)CNC(=O)CNC(=O)CNC(=O)OC(C)(C)C)n2)n1          0 (no)
 5  CCCCC(CC)C(=O)Oc1ccc(C(=O)c2ccccc2)c(O)c1 (stereo not given)          0 (no)
 6  COc1cc(Br)cc2cc(-c3cn4c(n3)sc3ccccc34)c(=O)oc12          0 (no)
 7  COc1cc2c(c(OC)c1OC)-c1ccc(OC)c(=O)cc1[C@@H](NC(=O)c1ccccc1)CC2         1 (yes)
 8  CCN1C/C(=C\c2ccc(Cl)cc2)c2nc(N)c(C#N)c(-c3ccc(Cl)cc3)c2C1          0 (no)
 9  O=C(CN1CCN(C(=O)OCc2ccccc2)CCN(CC(=O)N2CCCCC2)CCN(C(=O)OCc2ccccc2)CC1)N1CCCCC1          0 (no)
10  CCOC(=O)n1c(=O)nc2c3c(ncn21)Oc1c(c(-c2ccccc2)nn1-c1ccccc1)C3c1ccc(Cl)cc1 (stereo not given)          0 (no)
11  COC(=O)CCC(NC(=O)OC(C)(C)C)C(=O)NC(Cc1ccc(NC(=O)CCCC(C)=O)cc1)C(=O)NC(CCC(=O)OC)C(=O)OC (stereo not given)          0 (no)
12  CCOC(=O)C1=C(C#N)S(=O)(=O)c2c(oc(C)c2C)N1          0 (no)
13  CCN(CC)CCN1CCN=C2c3cc(OC)ccc3Nc3c([N+](=O)[O-])ccc1c32         1 (yes)
14  CC1=NN(c2cccc(Cl)c2)C2(SCC(=O)N2c2nc3ccccc3s2)/C1=C\c1cccs1 (stereo not given)          0 (no)
15  COc1ccc(C2C3=CONC3CC3CCCCC32)cc1 (stereo not given)          0 (no)
16                      COC1(OC)C=CC(=O)C=C1          0 (no)
17  COC(=O)C1C(C(=O)OC)C2(OC(c3ccc(Cl)cc3)=CC2=O)C12OC(c1ccc(Cl)cc1)=CC2=O (stereo not given)          0 (no)
18  COC(=O)/C=C(\S/C(=N\n1cc(C(=O)OC)c(C(=O)OC)c1-c1ccc(C)cc1)c1ccc(C)cc1)C(=O)OC          0 (no)
19  CCOC(=O)NC(Nc1ccc(C)cc1)(C(F)(F)F)C(F)(F)F          0 (no)
